- target-system: human TRPV1 receptor (hTRPV1) (Homo sapiens (Human), UniProt Q8NER1)
- Sequence (Q8NER1 whole entry): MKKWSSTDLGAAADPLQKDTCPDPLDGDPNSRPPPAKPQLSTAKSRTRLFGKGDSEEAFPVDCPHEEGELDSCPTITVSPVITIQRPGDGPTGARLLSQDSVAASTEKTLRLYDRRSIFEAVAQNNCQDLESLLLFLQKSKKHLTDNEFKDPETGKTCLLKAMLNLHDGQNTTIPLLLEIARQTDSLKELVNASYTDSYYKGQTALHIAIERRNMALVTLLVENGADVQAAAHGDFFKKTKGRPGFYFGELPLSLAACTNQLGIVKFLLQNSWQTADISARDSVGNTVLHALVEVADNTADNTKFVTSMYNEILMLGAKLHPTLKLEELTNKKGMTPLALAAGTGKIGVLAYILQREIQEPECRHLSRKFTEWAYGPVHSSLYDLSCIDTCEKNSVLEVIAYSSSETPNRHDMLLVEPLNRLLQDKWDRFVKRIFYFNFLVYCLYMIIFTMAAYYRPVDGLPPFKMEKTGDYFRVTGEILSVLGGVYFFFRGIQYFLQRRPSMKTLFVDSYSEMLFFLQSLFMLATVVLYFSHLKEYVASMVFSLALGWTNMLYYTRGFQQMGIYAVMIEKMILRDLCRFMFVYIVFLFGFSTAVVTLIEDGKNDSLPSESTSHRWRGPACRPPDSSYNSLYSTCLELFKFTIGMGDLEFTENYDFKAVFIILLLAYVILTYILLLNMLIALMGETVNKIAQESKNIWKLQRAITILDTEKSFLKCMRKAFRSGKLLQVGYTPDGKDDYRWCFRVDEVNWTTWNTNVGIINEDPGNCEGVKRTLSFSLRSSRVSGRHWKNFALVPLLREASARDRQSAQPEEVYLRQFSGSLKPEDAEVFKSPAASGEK
- test-name: Acid activation assay (pH 5.0, FLIPR intracellular Ca2+)
- Type: cell-based
- experimental-setup: Table 1; 37.5 μM antagonist, percentage of the maximal pH 5.0-induced response remaining; read-out: hTRPV1 H+ (max % remain)
measured-parameter: remaining activity at 37.5 µM (%)
Only the number, expressed in %, is required.

molecule="Cc1csc([C@H]2CC[C@H](NC(=O)Nc3cccc4[nH]ncc34)C2)n1 (relative stereo)" measured_parameter="remaining activity at 37.5 µM" unit_tag=% number=18
molecule=Cn1c(=O)ccc2c(NC(=O)N[C@H]3CC[C@@H](c4ccccc4F)C3)cccc21 measured_parameter="remaining activity at 37.5 µM" unit_tag=% number=55
molecule=O=C(Nc1cccc2[nH]ncc12)N[C@@H]1CC[C@@H](c2ccc(C(F)(F)F)cc2)C1 measured_parameter="remaining activity at 37.5 µM" unit_tag=% number=13
molecule=O=C(Nc1cccc2[nH]ncc12)N[C@H]1CC[C@@H](c2ccccc2)C1 measured_parameter="remaining activity at 37.5 µM" unit_tag=% number=41
molecule="Cc1cnc([C@H]2CC[C@@H](NC(=O)Nc3cccc4[nH]ncc34)C2)o1 (stereo in doubt)" measured_parameter="remaining activity at 37.5 µM" unit_tag=% number=54
molecule="COCCN(C)C1Cc2ccc(NC(=O)N[C@@H]3CC[C@H](c4ccccc4)C3)cc2NC1=O (some centres unmarked)" measured_parameter="remaining activity at 37.5 µM" unit_tag=% number=62

Which remaining activity at 37.5 µM is listed for CN1C(=O)CCc2c(NC(=O)N[C@H]3CC[C@@H](c4ccccc4F)C3)cccc21 ?
43

Which remaining activity at 37.5 µM is listed for O=C(Nc1cccc2[nH]ncc12)N[C@H]1C[C@@H](c2ccccc2)C1 ?
10

###

- target-system: UniProt:Q8NER1
- test-name: Acid activation assay (pH 5.0, FLIPR intracellular Ca2+)
- Type: cell-based
- experimental-setup: Table 1; 37.5 μM antagonist, percentage of the maximal pH 5.0-induced response remaining; read-out: hTRPV1 H+ (max % remain)
remaining activity at 37.5 µM for assorted molecules
Only the number, expressed in %, is required.

molecule=Cn1ncc2c(NC(=O)N[C@H]3CC[C@H](c4ccccc4)C3)cccc21 measured_parameter="remaining activity at 37.5 µM" number=49
molecule=O=C(Nc1cccc2c1C[C@H](O)C2)N[C@H]1C[C@@H](c2ccccc2)C1 measured_parameter="remaining activity at 37.5 µM" number=72
molecule=Cn1c(=O)ccc2c(NC(=O)N[C@@H]3CC[C@@H](c4cccc(F)c4)C3)cccc21 measured_parameter="remaining activity at 37.5 µM" number=78
molecule="CC(C)(C)c1ccc(C2CCC(NC(=O)Nc3cccc4[nH]ncc34)C2)cc1 (centres unmarked)" measured_parameter="remaining activity at 37.5 µM" number=6
molecule="CSc1ccc([C@H]2CCC(NC(=O)Nc3cccc4[nH]ncc34)C2)cc1 (some centres unmarked)" measured_parameter="remaining activity at 37.5 µM" number=7
molecule=Cc1cc2c(NC(=O)N[C@@H]3CC[C@@H](c4ccccc4)C3)c(F)ccc2cn1 measured_parameter="remaining activity at 37.5 µM" number=32
molecule=CN1C(=O)CCc2ccc(NC(=O)N[C@H]3CC[C@H](c4ccccc4)C3)cc21 measured_parameter="remaining activity at 37.5 µM" number=75
molecule=Cn1c(=O)ccc2c(NC(=O)N[C@H]3CC[C@@H](c4cccc(F)c4)C3)cccc21 measured_parameter="remaining activity at 37.5 µM" number=75
molecule="O=C(Nc1cccc2c1C[C@@H](O)CC2)N[C@@H]1CC[C@@H](c2ccccc2)C1 [Compound F, reference compound]" measured_parameter="remaining activity at 37.5 µM" number=6
molecule=O=C(Nc1cccc2c1C[C@@H](O)C2)N[C@@H]1CC[C@@H](c2ccccc2)C1 measured_parameter="remaining activity at 37.5 µM" number=87

Which remaining activity at 37.5 µM is listed for O=C(Nc1cccc2[nH]ncc12)N[C@H]1CC[C@H](c2ccccc2F)C1 ?
5

Which remaining activity at 37.5 µM is listed for Cc1coc([C@H]2CC[C@@H](NC(=O)Nc3cccc4[nH]ncc34)C2)n1 (single isomer, unassigned) ?
29

Which remaining activity at 37.5 µM is listed for O=C(Nc1cccc2[nH]ncc12)N[C@H]1C=C[C@@H](c2ccccc2)C1 ?
38

Which remaining activity at 37.5 µM is listed for O=C(Nc1cccc2[nH]ncc12)N[C@H]1CC[C@H](c2ccccn2)C1 (relative stereo) ?
33

Which remaining activity at 37.5 µM is listed for O=C(Nc1cccc2[nH]ncc12)N[C@@H]1CCC[C@@H](c2ccc(C(F)(F)F)cc2)C1 ?
35

Which remaining activity at 37.5 µM is listed for O=C(Nc1cccc2[nH]ncc12)N[C@H]1CC[C@@H](c2ccccc2F)C1 ?
18

###

- target-system: human TRPV1 receptor (hTRPV1) (Homo sapiens (Human), UniProt Q8NER1)
- test-name: Capsaicin activation assay (FLIPR intracellular Ca2+)
- Format: cell-based
- experimental-setup: Table 1; inhibition of capsaicin-induced intracellular Ca2+ increase, HEK293 cells expressing human TRPV1; read-out: hTRPV1 cap IC50
pIC50 for assorted compounds
Scale note: pIC50 = -log10(concentration in M).

compound=O=C(Nc1cccc2[nH]ncc12)N[C@H]1C[C@H](c2ccccc2)C1 measured_parameter=pIC50 number=7.19
compound="CN(C)c1ccc([C@H]2CCC(NC(=O)Nc3cccc4[nH]ncc34)C2)cc1 (some centres unmarked)" measured_parameter=pIC50 number=6.54
compound="O=C(Nc1cccc2[nH]ncc12)N[C@H]1CC[C@@](O)(c2ccccc2)C1 (relative stereo)" measured_parameter=pIC50 number=5.06
compound=O=C1CCc2ccc(NC(=O)N[C@@H]3CC[C@H](c4ccccc4)C3)cc2N1 measured_parameter=pIC50 number=7.15
compound=O=C(Nc1cccc2c1C[C@H](O)C2)N[C@H]1C[C@H](c2ccccc2)C1 measured_parameter=pIC50 number=6.36

Which pIC50 is listed for Cn1ncc2c(NC(=O)N[C@@H]3CC[C@H](c4ccccc4)C3)cccc21 ?
7.74

Which pIC50 is listed for O=C(Nc1cccc2[nH]ncc12)NC1CC[C@H](c2ccc(F)cc2)C1 (some centres unmarked) ?
7.59

Which pIC50 is listed for O=C(Nc1cccc2[nH]ncc12)N[C@@H]1C=C[C@H](c2ccccc2)C1 ?
7.38

Which pIC50 is listed for O=C(Nc1cccc2c1C[C@H](O)C2)N[C@H]1CC[C@@H](c2ccccc2)C1 ?
6.54

###

change in vivo at 100 µmol/kg for assorted compounds
- Tested on: Sprague-Dawley rats
- test-name: Rat tail immersion assay (noxious thermosensation)
- Format: in vivo
- experimental-setup: 1 h; rat, 100 μmol/kg oral, one hour post dosing, 55° C. water bath, relative to vehicle; read-out: % Increase in tail withdrawal latency
- Method: Adult male Sprague-Dawley rats (250-300 g body weight, Charles River Laboratories, Portage, Mich.) were used. Animal handling and experimental protocols were approved by the Institutional Animal Care and Use Committee (IACUC) at Abbott Laboratories. […] Compounds were tested for their effects on noxious thermosensation using the tail immersion assay. […] This response latency (in seconds) was recorded. […]

Please review the following examples before continuing.
compound="Cc1nc(Nc2cccc3c2C[C@H](O)CC3)oc1-c1ccc(C(F)(F)F)cc1 [K, reference compound]" result="> 25%"
compound=Cn1c(=O)ccc2c(NC(=O)N[C@@H]3CC[C@@H](c4cccc(F)c4)C3)cccc21 result="10 to 25%"
compound="Cc1cccnc1N1CC=C(C(=O)Nc2ccc(S(=O)(=O)C(F)(F)F)cc2)CC1 [L, reference compound]" result="> 25%"

Now consider the entry below.
Which change in vivo at 100 µmol/kg is listed for CC(C)(C)c1ccc2c(c1)CC[C@H]2NC(=O)Nc1cccc2[nH]ncc12 [J, reference compound] ?
> 25%

###

remaining activity at 37.5 µM for assorted compounds
- target-system: UniProtKB Q8NER1
- test-name: Acid activation assay (pH 5.0, FLIPR intracellular Ca2+)
- Format: cell-based
- experimental-setup: Table 1; 37.5 μM antagonist, percentage of the maximal pH 5.0-induced response remaining; read-out: hTRPV1 H+ (max % remain)
- Method: Dulbecco's modified Eagle's medium (DMEM) with 4.5 mg/mL D-glucose, fetal bovine serum, L-glutamine, and 2-morpholinoethanesulfonic acid (MES) were purchased from Sigma-Aldrich Co. (St. Louis, Mo.). […] The functional activity of compounds at the TRPV1 receptor was determined by measurement of intracellular Ca^2+ levels ([Ca^2+]i) using the Fluorescence Imaging Plate Reader (FLIPR)^TETRA®. […]
Only the number, expressed in %, is required.

Please review the following examples before continuing.
compound=Cn1ncc2c(NC(=O)N[C@@H]3CC[C@@H](c4ccccc4)C3)cccc21 measured_parameter="remaining activity at 37.5 µM" number=18
compound=Cn1ncc2c(NC(=O)N[C@H]3CC[C@@H](c4ccccc4F)C3)cccc21 measured_parameter="remaining activity at 37.5 µM" number=42

Which remaining activity at 37.5 µM is listed for COc1ccc(C2CCC(NC(=O)Nc3cccc4[nH]ncc34)C2)cc1 (stereo not drawn) ?
1

Which remaining activity at 37.5 µM is listed for Cc1cc2c(NC(=O)N[C@@H]3CC[C@@](C)(c4ccccc4)C3)c(F)ccc2cn1 ?
16

Which remaining activity at 37.5 µM is listed for Cc1cc2c(NC(=O)N[C@@H]3CC[C@H](c4cccc(F)c4)C3)c(F)ccc2cn1 ?
9
